Target: KRAS G13D (Homo sapiens, UniProt P01116+P62937, G13D)
Sequence (P01116 1-169 isoform P01116-2 G13D limits assumed, one chain of several): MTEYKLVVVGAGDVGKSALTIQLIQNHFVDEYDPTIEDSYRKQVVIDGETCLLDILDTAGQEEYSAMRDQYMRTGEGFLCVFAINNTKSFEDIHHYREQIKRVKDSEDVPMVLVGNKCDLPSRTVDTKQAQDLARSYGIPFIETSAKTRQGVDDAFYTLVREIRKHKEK
Assay: Disruption of BRAF RBD interaction with Ras (FRET / MOA assay, with Cyclophilin A)
Assay type: biochemical
Conditions: KRAS G13D; read-out: KRAS G13D FRET data IC50
pIC50: −log10 of the molar value.
Measured pIC50 of individual entries

1) CCn1c(-c2cccnc2[C@H](C)OC)c2c3cc(ccc31)-c1cc(O)cc(c1)C[C@H](NC(=O)[C@H](C(C)C)N(C)C(=O)C1Cc3cccnc3C1)C(=O)N1CCC[C@H](N1)C(=O)OCC(C)(C)C2 (some centres unmarked) ... 6.00 to 7.00

Next:
Data request: For the compound shown here, C=CC(=O)N1CC[C@H](C(=O)N(C)[C@H](C(=O)N[C@H]2Cc3nc(cs3)-c3ccc4c(c3)c(c(-c3cccnc3[C@H](C)OC)n4CC)CC(C)(C)CN(C)C[C@@H]3CCCN(N3)C2=O)C(C)C)C1 , give the reported pIC50.
Data returned: < 5.00

----------
Target: NRAS G12C (Homo sapiens, UniProt P01111+P62937, G12C)
Sequence (P01111 whole entry G12C): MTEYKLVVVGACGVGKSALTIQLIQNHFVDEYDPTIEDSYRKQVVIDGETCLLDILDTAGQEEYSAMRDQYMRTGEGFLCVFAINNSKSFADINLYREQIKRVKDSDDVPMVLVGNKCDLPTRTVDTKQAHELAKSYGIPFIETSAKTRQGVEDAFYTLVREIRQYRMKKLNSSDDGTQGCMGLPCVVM
Sequence (P62937 whole entry): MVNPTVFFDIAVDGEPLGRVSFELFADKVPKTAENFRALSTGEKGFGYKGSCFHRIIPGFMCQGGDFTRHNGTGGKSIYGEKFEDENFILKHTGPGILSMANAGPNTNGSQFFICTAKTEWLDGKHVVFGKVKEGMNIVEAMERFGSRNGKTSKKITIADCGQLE
Assay: Ras-Raf disruption / FRET / MOA assay (BRAF RBD)
Format: biochemical
Conditions: NRAS G12C FRET data IC50, NRAS G12C
REPORTED PROPERTY: IC50

1. CCn1c(-c2cccnc2[C@H](C)OC)c2c3cc(ccc31)-c1cc(O)cc(c1)C[C@H](NC(=O)[C@H](C(C)C)N(C)C(=O)[C@H]1CCN1C(=O)[C@H]1CN1)C(=O)N1CCC[C@H](N1)C(=O)OCC(C)(C)C2 ... 10 to 100 nM
2. CCn1c(-c2cccnc2[C@H](C)OC)c2c3cc(ccc31)-c1cc(O)cc(c1)C[C@H](NC(=O)[C@H](C(C)C)N(C)C(=O)CN(C)C(=O)[C@H]1CN1CCCC#N)C(=O)N1CCC[C@H](N1)C(=O)OCC(C)(C)C2 (some centres unmarked) ... < 10 nM
3. CCn1c(-c2cccnc2[C@H](C)OC)c2c3cc(ccc31)-c1cc(O)cc(c1)C[C@H](NC(=O)[C@H](C(C)C)N(C)C(=O)CN(C)C(=O)[C@@H]1N[C@H]1C1COC1)C(=O)N1CCC[C@H](N1)C(=O)OCC(C)(C)C2 ... 10 to 100 nM
4. CCn1c(-c2cccnc2[C@H](C)OC)c2c3cc(ccc31)-c1cc(O)cc(c1)C[C@H](NC(=O)[C@H](C(C)C)N(C)C(=O)CN(C)C(=O)[C@@H]1CN1CCO)C(=O)N1CCC[C@H](N1)C(=O)OCC(C)(C)C2 (some centres unmarked) ... < 10 nM

Data request: Item under review: CCn1c(-c2cccnc2[C@H](C)OC)c2c3cc(ccc31)-c1cc(O)cc(c1)C[C@H](NC(=O)[C@H](C(C)C)N(C)C(=O)[C@]13C[C@H]1CCN3C(=O)[C@@H]1CN1)C(=O)N1CCC[C@H](N1)C(=O)OCC(C)(C)C2 . Reported IC50?
Data returned: 100 to 1000 nM

Data request: Which IC50 is reported for this compound? CCn1c(-c2cccnc2[C@H](C)OC)c2c3cc(ccc31)-c1cc(O)cc(c1)C[C@H](NC(=O)[C@H](C(C)C)N(C)C(=O)CN(C)C(=O)[C@H]1N[C@@H]1C1COC1)C(=O)N1CCC[C@H](N1)C(=O)OCC(C)(C)C2
Data returned: < 10 nM

Data request: Any idea what IC50 was measured for CCn1c(-c2cccnc2[C@H](C)OC)c2c3cc(ccc31)-c1cc(O)cc(c1)C[C@H](NC(=O)[C@H](C(C)C)N(C)C(=O)CN(C)C(=O)[C@@H]1N[C@H]1COC)C(=O)N1CCC[C@H](N1)C(=O)OCC(C)(C)C2 ?
Data returned: 10 to 100 nM

Data request: Requested field: IC50. Item: CCn1c(-c2cccnc2[C@H](C)OC)c2c3cc(ccc31)-c1cc(O)cc(c1)C[C@H](NC(=O)[C@H](C(C)C)N(C)C(=O)CN(C)C(=O)[C@@]1(C)CN1)C(=O)N1CCC[C@H](N1)C(=O)OCC(C)(C)C2
Data returned: 10 to 100 nM

----------
Target: KRAS G12C (Homo sapiens, UniProt P01116+P62937, G12C)
Sequence (P01116 1-169 isoform P01116-2 G12C, one chain of several): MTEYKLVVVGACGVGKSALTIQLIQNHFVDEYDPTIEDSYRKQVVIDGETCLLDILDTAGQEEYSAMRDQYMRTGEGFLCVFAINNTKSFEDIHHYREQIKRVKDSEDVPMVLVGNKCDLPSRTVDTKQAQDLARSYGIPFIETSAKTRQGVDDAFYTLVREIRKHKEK
Assay: Disruption of BRAF RBD interaction with Ras (FRET / MOA assay, with Cyclophilin A)
Type: biochemical
Conditions: KRAS G12C FRET data, IC50
Listing: IC50 of selected compounds

1) CCn1c(-c2cccnc2[C@H](C)OC)c2c3cc(ccc31)-c1csc(n1)C[C@H](NC(=O)[C@H](C(C)C)N(C)C(=O)N1CC(N)(C#N)C1)C(=O)N1CCC[C@H](N1)C(=O)OCC(C)(C)C2 ... 0.1 to 1 µM
2) CCn1c(-c2cnccc2COC)c2c3cc(ccc31)-c1cc(O)cc(c1)C[C@H](NC(=O)[C@H](C(C)C)N(C)C(=O)[C@H]1CCN(CCO)C1)C(=O)N1CCC[C@H](N1)C(=O)OCC(C)(C)C2 ... 0.1 to 1 µM

Now turn to the next compound.
Data request: Entry CCn1c(-c2ccccc2CCOC)c2c3cc(ccc31)-c1cc(O)cc(c1)C[C@H](NC(=O)[C@H](C(C)C)N(C)C(=O)CCN)C(=O)N1CCC[C@H](N1)C(=O)OCC(C)(C)C2 has what IC50?
Data returned: 1 to 10 µM

----------
The following molecules are shown together with reported IC50 values.
Biological target: KRAS WT (Homo sapiens, UniProt P01116+P62937)
Sequence (P01116 1-169 isoform P01116-2 limits assumed, one chain of several): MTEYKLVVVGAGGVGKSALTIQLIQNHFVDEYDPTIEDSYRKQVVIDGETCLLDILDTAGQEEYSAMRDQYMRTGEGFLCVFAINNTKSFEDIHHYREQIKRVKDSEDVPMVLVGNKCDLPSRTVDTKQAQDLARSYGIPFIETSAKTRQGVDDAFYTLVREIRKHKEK
Experiment: Disruption of BRAF RBD interaction with Ras (FRET / MOA assay, with Cyclophilin A)
Assay type: biochemical
Details: KRAS WT FRET data IC50, KRAS WT

Solved entries:
1. CCn1c(-c2cccnc2[C@H](C)OC)c2c3cc(ccc31)-c1cc(O)cc(c1)C[C@H](NC(=O)[C@H](C(C)C)N(C)C(=O)C1CCN3CCOCC13)C(=O)N1CCC[C@H](N1)C(=O)OCC(C)(C)C2 (some centres unmarked) ... 0.1 to 1 µM
2. CCn1c(-c2cccnc2[C@H](C)OC)c2c3cc(ccc31)-c1csc(n1)C[C@H](NC(=O)[C@H](C(C)C)N(C)C(=O)N1CCC[C@H](CN(C)C)C1)C(=O)N1CCC[C@H](N1)C(=O)OCC(C)(C)C2 (atropisomer, axis not shown) ... 0.01 to 0.1 µM
3. CCn1c(-c2cccnc2[C@H](C)OC)c2c3cc(ccc31)-c1cc(O)cc(c1)C[C@H](NC(=O)[C@H](C(C)C)N(C)C(=O)[C@H]1C[C@@H](O)C1)C(=O)N1CCC[C@H](N1)C(=O)OCC(C)(C)C2 (atropisomer, axis not shown) ... 0.01 to 0.1 µM
4. C=CC(=O)N1CCO[C@@]2(CCN(C(=O)N(C)[C@H](C(=O)N[C@H]3Cc4nc(cs4)-c4ccc5c(c4)c(c(-c4cccnc4[C@H](C)OC)n5CC(F)(F)F)CC(C)(C)COC(=O)C4CCCN(N4)C3=O)C(C)C)C2)C1 (some centres unmarked) ... 0.01 to 0.1 µM

With those in mind, consider the next molecule.
Data request: Fill in the blank: the reported IC50 of CCN1C[C@@H](C(=O)N(C)[C@H](C(=O)N[C@H]2Cc3cc(O)cc(c3)-c3ccc4c(c3)c(c(-c3cnccc3COC)n4CC)CC(C)(C)COC(=O)[C@@H]3CCCN(N3)C2=O)C(C)C)CC1=O is ____.
Data returned: 0.1 to 1 µM

----------
Each item that follows carries a reported IC50.
Biological target: KRAS G12V (Homo sapiens, UniProt P01116+P62937, G12V)
Sequence (P01116 1-169 isoform P01116-2 G12V limits assumed, one chain of several): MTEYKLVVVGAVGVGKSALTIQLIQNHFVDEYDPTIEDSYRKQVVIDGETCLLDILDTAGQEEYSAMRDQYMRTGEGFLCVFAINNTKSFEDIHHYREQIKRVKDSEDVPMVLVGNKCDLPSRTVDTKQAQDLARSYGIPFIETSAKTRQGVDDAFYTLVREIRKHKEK
Assay: Ras-Raf disruption / FRET / MOA assay (BRAF RBD)
Type: biochemical
Settings: KRAS G12V FRET data IC50, Ras-Raf disruption, with Cyclophilin A

1. CCn1c(-c2cccnc2[C@H](C)OC)c2c3cc(ccc31)-c1cc(O)cc(c1)C[C@H](NC(=O)[C@H](C(C)C)N(C)C(=O)CN(C)C(=O)[C@H]1CN1CCOC)C(=O)N1CCC[C@H](N1)C(=O)OCC(C)(C)C2 (stereo partly shown) ... 10 to 100 nM
2. CCn1c(-c2cccnc2[C@H](C)OC)c2c3cc(ccc31)-c1cc(O)cc(c1)C[C@H](NC(=O)[C@H](C(C)C)N(C)C(=O)CN(C)C(=O)[C@H]1CN1CCCN1CCOC1=O)C(=O)N1CCC[C@H](N1)C(=O)OCC(C)(C)C2 (stereo partly shown) ... 10 to 100 nM
3. CCn1c(-c2cccnc2[C@H](C)OC)c2c3cc(ccc31)-c1cc(O)cc(c1)C[C@H](NC(=O)[C@H](C(C)C)N(C)C(=O)CN(C)C(=O)[C@@H]1N[C@H]1COC)C(=O)N1CCC[C@H](N1)C(=O)OCC(C)(C)C2 ... 10 to 100 nM

Next:
Data request: Give its IC50 value. Item: CCn1c(-c2cccnc2[C@H](C)OC)c2c3cc(ccc31)-c1cc(O)cc(c1)C[C@H](NC(=O)[C@H](C(C)C)N(C)C(=O)C13CC(CN1C(=O)[C@@H]1CN1)C3)C(=O)N1CCC[C@H](N1)C(=O)OCC(C)(C)C2
Data returned: 100 to 1000 nM
